conditions: in isobutanol, 288.15 K
ENDPOINT_NAME: solubility (mole fraction)
Please respond with just the number, no unit label.

Task item: Quick check: solubility (mole fraction) of O=C(O)COc1ccc(Cl)cc1Cl ?
Reply: 0.0508

----------
settings: in n-pentanol, 293.15 K
ENDPOINT_NAME: solubility (mole fraction)

Task item: Item under review: O=C(O)COc1ccc(Cl)cc1Cl . Reported solubility (mole fraction)?
Reply: 0.107

----------
conditions: in 2-butanone, 288.15 K
ENDPOINT_NAME: solubility (mole fraction)
The response must contain the number and no unit.

Task item: Entry under review: O=C(O)COc1ccc(Cl)cc1Cl . Reported solubility (mole fraction)?
Reply: 0.112
